Listed next: entries and their corresponding pEC50.
# System: UniProt P11387
# Procedure summary: Effective concentration against DNA topoisomerase I
pEC50: −log10 of the molar value.

- Compound: "CC[C@@]1(O)C(=O)OCc2c1cc1n(c2=O)Cc2c-1nc1ccccc1c2CC(C)C"
  System: "UniProt P11387"
  pEC50: 6.35
- Compound: "CC[C@@]1(O)C(=O)OCc2c1cc1n(c2=O)Cc2c-1nc1cc3c(cc1c2-c1ccc(Cl)cc1)OCO3"
  System: "UniProt P11387"
  pEC50: 5.94
- Compound: "CCc1c2c(nc3ccc(O)cc13)-c1cc3c(c(=O)n1C2)COC(=O)[C@]3(O)CC (stereo in doubt; form 2) [7-ETHYL-10-HYDROXYCAMPTOTHECIN]"
  System: "UniProt P11387"
  pEC50: 7.15
- Compound: "CC[C@@]1(O)C(=O)OCc2c1cc1n(c2=O)Cc2c-1nc1ccccc1c2Cc1ccccc1"
  System: "UniProt P11387"
  pEC50: 5.34
- Compound: "CC[C@@]1(O)C(=O)OCc2c1cc1n(c2=O)Cc2c-1nc1cc3c(cc1c2-c1ccccc1)OCO3"
  System: "UniProt P11387"
  pEC50: 6.82
- Compound: "CC[C@@]1(O)C(=O)OCc2c1cc1n(c2=O)Cc2c-1nc1cc3c(cc1c2-c1ccc(F)cc1)OCO3"
  System: "UniProt P11387"
  pEC50: 5.86
- Compound: "CC[C@@]1(O)C(=O)OCc2c1cc1n(c2=O)Cc2c-1nc1cc3c(cc1c2C1CCCCC1)OCO3"
  System: "UniProt P11387"
  pEC50: 6.00
- Compound: "CCCCc1c2c(nc3ccccc13)-c1cc3c(c(=O)n1C2)COC(=O)[C@]3(O)CC"
  System: "UniProt P11387"
  pEC50: 6.70

----------
# Tested on: HeLa
# Procedure summary: Concentration required to inhibit growth of human cervical HeLa carcinoma cell line
# Format: functional, cell-based
# Conditions used: Homo sapiens, HeLa
Each entry below carries its reported IC50.
Measurement label: IC50 (nM)

- Cpd smiles: "CC[C@@]1(O)C(=O)OCc2c1cc1n(c2=O)Cc2c-1nc1cc3c(cc1c2-c1ccc(F)cc1)OCO3"
  System: "HeLa"
  Recorded number: 16.2
- Cpd smiles: "CC[C@@]1(O)C(=O)OCc2c1cc1n(c2=O)Cc2c-1nc1ccccc1c2CC(C)C"
  System: "HeLa"
  Recorded number: 1310
- Cpd smiles: "CC[C@@]1(O)C(=O)OCc2c1cc1n(c2=O)Cc2cc3cc4c(cc3nc2-1)OCO4"
  System: "HeLa"
  Recorded number: 9.6
- Cpd smiles: "CC[C@@]1(O)C(=O)OCc2c1cc1n(c2=O)Cc2c-1nc1cc3c(cc1c2C1CCCCC1)OCO3"
  System: "HeLa"
  Recorded number: 9

----------
The following compounds are listed with their measured EC50 values.
# System: UniProtKB P11387
# Sequence (P11387 whole entry): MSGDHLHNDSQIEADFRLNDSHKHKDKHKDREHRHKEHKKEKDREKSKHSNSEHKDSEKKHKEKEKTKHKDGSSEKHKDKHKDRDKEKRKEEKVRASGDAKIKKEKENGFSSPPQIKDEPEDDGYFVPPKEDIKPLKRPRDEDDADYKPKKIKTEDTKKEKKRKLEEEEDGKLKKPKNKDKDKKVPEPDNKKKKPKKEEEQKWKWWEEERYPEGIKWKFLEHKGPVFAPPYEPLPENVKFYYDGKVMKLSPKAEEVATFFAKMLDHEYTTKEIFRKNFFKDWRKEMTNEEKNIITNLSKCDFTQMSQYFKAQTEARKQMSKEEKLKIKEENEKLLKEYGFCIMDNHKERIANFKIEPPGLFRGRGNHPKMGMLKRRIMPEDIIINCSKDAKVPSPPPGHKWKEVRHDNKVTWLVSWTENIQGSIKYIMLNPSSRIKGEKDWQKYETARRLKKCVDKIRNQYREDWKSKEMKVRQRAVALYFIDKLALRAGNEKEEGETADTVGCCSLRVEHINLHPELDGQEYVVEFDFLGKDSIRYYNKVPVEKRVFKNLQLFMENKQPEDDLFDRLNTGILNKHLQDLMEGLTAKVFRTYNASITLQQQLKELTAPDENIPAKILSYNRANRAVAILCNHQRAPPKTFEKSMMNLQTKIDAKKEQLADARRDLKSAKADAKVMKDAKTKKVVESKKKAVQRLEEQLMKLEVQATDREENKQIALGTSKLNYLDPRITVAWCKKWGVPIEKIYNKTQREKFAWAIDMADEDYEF
# Procedure summary: Effective concentration against DNA topoisomerase I

- Compound: "CCc1c2c(nc3ccc(O)cc13)-c1cc3c(c(=O)n1C2)COC(=O)[C@]3(O)CC (stereo in doubt; form 1) [7-ETHYL-10-HYDROXYCAMPTOTHECIN]"
  EC50: "320 nM"
- Compound: "CC[C@@]1(O)C(=O)OCc2c1cc1n(c2=O)Cc2c-1nc1cc3c(cc1c2C1CCCC1)OCO3"
  EC50: "190 nM"
- Compound: "CC[C@@]1(O)C(=O)OCc2c1cc1n(c2=O)Cc2c-1nc1ccccc1c2C(C)(C)C"
  EC50: "240 nM"
- Compound: "CC[C@@]1(O)C(=O)OCc2c1cc1n(c2=O)Cc2c-1nc1cc3c(cc1c2-c1ccc(C)cc1)OCO3"
  EC50: "1040 nM"
- Compound: "CC[C@@]1(O)C(=O)OCc2c1cc1n(c2=O)Cc2c-1nc1cc3c(cc1c2-c1ccc(C(F)(F)F)cc1)OCO3"
  EC50: "160 nM"
- Compound: "CC[C@@]1(O)C(=O)OCc2c1cc1n(c2=O)Cc2c-1nc1cc3c(cc1c2Cc1ccccc1)OCO3"
  EC50: "1950 nM"
- Compound: "CCc1c2c(nc3cc4c(cc13)OCO4)-c1cc3c(c(=O)n1C2)COC(=O)[C@]3(O)CC"
  EC50: "270 nM"

Attribution: ChEMBL document CHEMBL1137998
